# PROTOCOL_SUMMARY: Toxicity in iv dosed mouse measured for 24 hrs
# Format: organism-based
# CONDITION_SET: in vivo
MEASUREMENT_TYPE: LD50 at 24 h (mg/kg)
Report the value in mg/kg with no unit label.

Any idea what LD50 at 24 h was measured for `COc1cc2c(cc1OC)[C@@H]1N(C)Cc3c(cc(OC)c4c3OCO4)[C@]1(C)[C@H](O)C2` ?
41.6

---

# Tested on: Pichia kudriavzevii
# PROTOCOL_SUMMARY: Fungicidal activity against Candida krusei ATCC 34135 assessed as fungal killing incubated for 48 hrs followed by plating on SD agar plate
# Assay type: functional
# CONDITION_SET: read-out: MFC99.9
MEASUREMENT_TYPE: MFC (µg/mL)
Provide only the numeric value, understood in µg/mL.

| MOLECULE | MEASUREMENT_TYPE | UNITS_TEXT | READING |
| --- | --- | --- | --- |
| [Cl-].[N-]=[N+]=NCCCCCCCCCCCCOCCCc1ccc[n+](Cc2ccccc2)c1 | MFC | µg/mL | 7.8 |
| COC(=O)CCNCCCCCCCCCCCCOCCCc1cccnc1 | MFC | µg/mL | 250 |
| CC(=O)N1CCN(c2ccc(OCC3COC(Cn4ccnc4)(c4ccc(Cl)cc4Cl)O3)cc2)CC1 (centres undefined) | MFC | µg/mL | 7.8 |

Reported MFC for `CCCC[n+]1cccc(CCCOCCCCCCCCCCCCN=[N+]=[N-])c1.[I-]` : what is it?
3.9

---

The entries below are paired with their reported MFC.
# Tested on: Candida albicans
# PROTOCOL_SUMMARY: Fungicidal activity against Candida albicans isolate 4 assessed as fungal killing incubated for 48 hrs followed by plating on SD agar plate
# Assay type: functional
# CONDITION_SET: read-out: MFC99.9
Number in µg/mL, nothing else.

| COMPOUND | UNITS_TEXT | MFC |
| --- | --- | --- |
| [Cl-].[N-]=[N+]=NCCCCCCCCCCCCOCCCc1ccc[n+](Cc2ccccc2)c1 | µg/mL | 1.95 |
| CCCC[n+]1cccc(CCCOCCCCCCCCCCCCN=[N+]=[N-])c1.[I-] | µg/mL | 3.9 |
| CC(=O)N1CCN(c2ccc(OCC3COC(Cn4ccnc4)(c4ccc(Cl)cc4Cl)O3)cc2)CC1 (centres undefined) [KETOCONAZOLE] | µg/mL | 125 |

Moving on to another compound below.
Returns the measured MFC for the input compound. Input: C[C@@H]1[C@H](O)[C@@H](C)/C=C/C=C/C=C/C=C/C=C/C=C/C=C/[C@H](O[C@@H]2O[C@H](C)[C@@H](O)[C@H](N)[C@@H]2O)C[C@@H]2O[C@](O)(C[C@@H](O)C[C@@H](O)[C@H](O)CC[C@@H](O)C[C@@H](O)CC(=O)O[C@H]1C)C[C@H](O)[C@H]2C(=O)O [AMPHOTERICIN B]
625

---

# System: Candida albicans
# PROTOCOL_SUMMARY: Antifungal activity against Candida albicans isolate 12 assessed as reduction in fungal growth incubated for 48 hrs by broth microdilution method
# Type: functional
MEASUREMENT_TYPE: MIC

// solved cases for MIC follow
| MOLECULE | MEASUREMENT_TYPE | READING |
| --- | --- | --- |
| [N-]=[N+]=NCCCCCCCCCCCCOCCCc1cccnc1 | MIC | > 500 µg/mL |
| CC(=O)N1CCN(c2ccc(OCC3COC(Cn4ccnc4)(c4ccc(Cl)cc4Cl)O3)cc2)CC1 (stereo not given) | MIC | 15.6 µg/mL |
| [Cl-].[N-]=[N+]=NCCCCCCCCCCCCOCCCc1ccc[n+](Cc2ccccc2)c1 | MIC | 7.8 µg/mL |
| CCCC[n+]1cccc(CCCOCCCCCCCCCCCCN=[N+]=[N-])c1.[I-] | MIC | 7.8 µg/mL |

Next molecule, please.
What value of MIC has been recorded for this entry: `COC(=O)CCNCCCCCCCCCCCCOCCCc1cccnc1`
250 µg/mL
